- System: DIV14
- Assay procedure: qHTS profiling for inhibitors of Plasmodium falciparum proliferation (AID 504749); also: nearly all actives have a fitted effect of over 60% in size
- Condition parameters: P. falciparum in erythrocytes, SYBR Green DNA, 72 h; series mostly up to 28.7 µM
Records with an inconclusive call do not appear. Activity calls are given as the source filed them. Calls follow the shape of the dose curve; as a rule, active = well fitted inhibition curve with a large enough effect; inconclusive = small, poorly fitted or top-dose-only effect; inactive = flat fitted curve, though single readings scatter.
Labels: active, inactive

Chemical string | Label value
O=C1NC(=O)C(c2ccccc2)(c2ccccc2)N1 | inactive
COc1ccc(Cc2nccc3cc(OC)c(OC)cc23)cc1OC | inactive
CCCCCN(C)CCC(O)(P(=O)(O)O)P(=O)(O)O | inactive
CCOC(=O)O[C@]1(C(=O)OCCl)CC[C@@H]2[C@H]3CCC4=CC(=O)C=C[C@]4(C)[C@@H]3[C@@H](O)C[C@@]21C | inactive
CCCNC(=O)NS(=O)(=O)c1ccc(Cl)cc1 | inactive
COCCCCC(=NOCCN)c1ccc(C(F)(F)F)cc1 | active
CC(=O)CCCCn1c(=O)c2c(ncn2C)n(C)c1=O | inactive
NC(N)=Nc1nc(CSCC/C(N)=N/S(N)(=O)=O)cs1 | inactive
CCN(CC)CCNC(=O)c1ccc(N)cc1 | inactive
CCN(CC)CCOC(=O)c1ccc(N)cc1 | inactive
O=C(O)Cc1cccc2ccccc12 | inactive
CC(=O)N[C@@H](CS)C(=O)O | inactive

* * *

- System: N140
- Assay procedure: qHTS profiling for inhibitors of Plasmodium falciparum proliferation (AID 504749); also: nearly all actives have a fitted effect of over 60% in size
- Condition parameters: P. falciparum in erythrocytes, SYBR Green DNA, 72 h; series mostly up to 28.7 µM
Inconclusive results are not listed. The source made the active and inactive calls. Calls follow the shape of the dose curve; as a rule, active = well fitted inhibition curve with a large enough effect; inconclusive = small, poorly fitted or top-dose-only effect; inactive = flat fitted curve, though single readings scatter.
Labels: 1.0 for active, 0.0 for inactive

Compound | Label value
CC(=O)O[C@]1(C(C)=O)CC[C@H]2[C@@H]3C=C(Cl)C4=CC(=O)[C@@H]5C[C@@H]5[C@]4(C)[C@H]3CC[C@@]21C | 0.0
NCCS | 0.0
Clc1ccc(Cn2c(CN3CCCC3)nc3ccccc32)cc1 | 0.0
O=C(O)c1cc(-c2ccccc2)nc2ccccc12 | 0.0
COc1ccccc1N1CCN(CCCNc2cc(=O)n(C)c(=O)n2C)CC1 | 0.0
CC1=C(/C=C/C(C)=C/C=C/C(C)=C/C(=O)Nc2ccc(O)cc2)C(C)(C)CCC1 | 1.0
NC(N)=Nc1nc(CSCC/C(N)=N/S(N)(=O)=O)cs1 | 0.0
CCCNC(=O)NS(=O)(=O)c1ccc(Cl)cc1 | 0.0
CCN(CC)CCNC(=O)c1ccc(N)cc1 | 0.0
CC(=O)CCCCn1c(=O)c2c(ncn2C)n(C)c1=O | 0.0
CCN(CC)CCOC(=O)c1ccc(N)cc1 | 0.0
Cc1cnc(C(=O)O)c[n+]1[O-] | 0.0
O=C1Nc2ccc(Cl)cc2C(C#CC2CC2)(C(F)(F)F)O1 (stereo unspecified) | 0.0
CCN1CCC[C@H]1CNC(=O)c1cc(S(N)(=O)=O)ccc1OC | 0.0
CCOC(=O)O[C@]1(C(=O)OCCl)CC[C@@H]2[C@H]3CCC4=CC(=O)C=C[C@]4(C)[C@@H]3[C@@H](O)C[C@@]21C | 0.0
CC(=O)c1ccc(S(=O)(=O)NC(=O)NC2CCCCC2)cc1 | 0.0
CCCCCN(C)CCC(O)(P(=O)(O)O)P(=O)(O)O | 0.0
CC1(C)O[C@H]2C[C@@H]3[C@H]4CCC5=CC(=O)C=C[C@]5(C)[C@@]4(F)[C@@H](O)C[C@]3(C)[C@]2(C(=O)CO)O1 | 0.0
O=c1[nH]cnc2c1ncn2[C@H]1CC[C@@H](CO)O1 | 0.0
C[C@@H](O)[C@H]1C(=O)N2C(C(=O)O)=C(S[C@@H]3CN[C@H](C(=O)N(C)C)C3)[C@H](C)[C@H]12 | 0.0
C[N+](C)(C)CCCCCC[N+](C)(C)C | 0.0

* * *

- Assay procedure: Quantitative High-Throughput drug screen in 47 multiple myeloma cell lines against the NCATS MIPE library collection: KMS27_JCRB cell viability assay (AID 1918970); also: nearly all actives have a fitted effect of over 30% in size
- Condition parameters: KMS27 myeloma cells, CellTiter-Glo ATP viability, 48 h; series mostly up to 45.8 µM
Records with an inconclusive call do not appear. Calls of active or inactive are those of the source. Calls follow the shape of the dose curve; as a rule, active = well fitted cell-killing curve with a large enough effect; inconclusive = small, poorly fitted or top-dose-only effect, or effect the other way; inactive = no such curve, though single readings can be large or run the other way.
Labels: active, inactive

Chemical string | Label value
NC[C@@H]1O[C@@H](O[C@H]2[C@@H](O)[C@H](O[C@@H]3[C@@H](O)[C@@H](N)C[C@H](N)[C@H]3O[C@H]3O[C@H](CN)[C@@H](O)[C@@H](O)[C@H]3N)O[C@H]2CO)[C@H](N)[C@@H](O)[C@@H]1O | inactive
O=C1NC(=O)C(=Cc2ccc3nccnc3c2)S1 | active
COc1ccc(-c2nc(N3CCOCC3)c3sc(CN(C)c4ncc(C(=O)NO)cn4)cc3n2)cn1 | active
OC[C@H]1O[C@@H](Oc2cc(O)cc(C=Cc3ccc(O)cc3)c2)[C@H](O)[C@@H](O)[C@H]1O | inactive
N#CC1(c2ccc(NC(=O)c3cccnc3NCc3ccncc3)cc2)CCCC1 | inactive
O=C(NCc1ccncc1)C12C[C@H]3C[C@@H](C1)CC(c1ccc(Cl)cc1)(C3)C2 | active

* * *

- Test system: CASKI
- Assay procedure: Primary qHTS to identify gynecologic anti-cancer compounds using libraries of approved drugs and bioactive compounds (AID 1345084); also: nearly all actives have a fitted effect of over 55% in size
- Condition parameters: Gynecologic cancer cell panel viability, ATPlite luminescence, 48 h; series mostly up to 57.5 µM
Inconclusive results are not listed. Activity calls are given as the source filed them. Calls follow the shape of the dose curve; as a rule, active = well fitted cell-killing curve with a large enough effect; inconclusive = small, poorly fitted or top-dose-only effect, or effect the other way; inactive = flat fitted curve, though single readings scatter.
Labels: active, inactive

Molecule | Test system | Label value
CN(C)c1cc(NC(=O)CNC(C)(C)C)c(O)c2c1C[C@@H]1C[C@H]3[C@H](N(C)C)C(=O)C(C(N)=O)=C(O)[C@@]3(O)C(=O)C1=C2O | CASKI | inactive
CC/C(=C(\c1ccccc1)c1ccc(OCCN(C)C)cc1)c1ccccc1 | CASKI | inactive
CO[C@H]1C=CO[C@@]2(C)Oc3c(C)c(O)c4c(O)c(c5c(c4c3C2=O)NC2(CCN(CC(C)C)CC2)N=5)=NC(=O)C(C)=CC=C[C@H](C)[C@H](O)[C@@H](C)[C@@H](O)[C@@H](C)[C@H](OC(C)=O)[C@H]1C | CASKI | inactive
Cc1c(NC(=O)c2ccc(C(C)(C)C)cc2)cccc1-c1cn(C)c(=O)c(Nc2ccc(C(=O)N3CCOCC3)cc2)n1 | CASKI | inactive
CN(C)C1CCN(C(=O)c2ccc(NC(=O)Nc3nc(N4CCOCC4)nc(N4CCOCC4)n3)cc2)CC1 | CASKI | active
CS(=O)c1ccc(-c2nc(-c3ccc(F)cc3)c(-c3ccncc3)[nH]2)cc1 (centres undefined) | CASKI | inactive
O=C(NC1CCOCC1)c1ccc(-c2cc(-c3cn[nH]c3-c3ccccn3)ccn2)cc1 | CASKI | inactive
O=C(O)Cc1cccc2ccccc12 | CASKI | inactive
CNC1CCC(N(Cc2cccc(-c3ccncc3)c2)C(=O)c2sc3c(F)ccc(F)c3c2Cl)CC1 (centres undefined) | CASKI | inactive

* * *

- Assay procedure: qHTS assay to identify inhibitors of the type 1 interferon - major histocompatibility complex class I in skeletal muscle: Counter screen cell viability and HiBit confirmation (AID 1347412); also: potency is read from the fitted curve at half-maximal effect; nearly all actives have a fitted effect of over 60% in size
- Condition parameters: iHSKM muscle cells + IFN-b, HiBiT or CellTiter-Glo, 24 h; Viability
- Description: […]
Inconclusive results are not listed. Active and inactive are the calls of the source. Calls follow the shape of the dose curve; as a rule, active = well fitted inhibition curve with a large enough effect; inconclusive = small, poorly fitted or top-dose-only effect; inactive = no such curve, though single readings can be large or run the other way.

Compound | Potency
NS(=O)(=O)c1cccc2c1C(=O)c1cccc(O)c1C2=O | 0.496 µM (active)
O=C1C(Cl)=C(NCCN2CCOCC2)C(=O)c2ncccc21 | 5.57 µM (active)
CC(C)(C)c1ccc(C(O)CCCN2CCC(C(O)(c3ccccc3)c3ccccc3)CC2)cc1 (stereo unspecified) | 22.2 µM (active)
C=C1C(=O)[C@@]23C(CC[C@@H]1[C@H]2O)[C@@]12CO[C@]3(O)[C@@H](O)[C@@H]1C(C)(C)CC[C@@H]2O (stereo partly specified) | 35.2 µM (active)
CC1(C)CCC2=C(O1)c1ccccc1C(=O)C2=O | 24.9 µM (active)
NS(=O)(=O)c1ccc(NC2=CC(=O)c3ccccc3C2=O)cc1 | 4.97 µM (active)

* * *

- Assay procedure: qHTS assay for environmental chemicals that activate the Aryl hydrocarbon Receptor (AhR) signaling pathway (AID 651777); also: % of control where 0% means no effect; nearly all actives have a fitted effect of over 15% in size
- Condition parameters: 1A2-DRE human hepatoma cells, luciferase, 24 h; active compounds read high
Inconclusive results are not listed.

Chemical string | Result unit | activation
CC(C)OC(=O)C(C)(C)Oc1ccc(C(=O)c2ccc(Cl)cc2)cc1 | % | 2.52
CC1=C(/C=C/C(C)=C/C=C/C(C)=C/C(=O)Nc2ccc(O)cc2)C(C)(C)CCC1 | % | 4.06
CC(=O)N[C@@H](CS)C(=O)O | % | -0.0175
O=C(O)c1cc(-c2ccccc2)nc2ccccc12 | % | 4.06
O=C(O)c1cc(O)c2c(c1)C(=O)c1cccc(O)c1C2=O | % | 1.52
